Assay: Phase 1 Stage 1 clinical pharmacokinetics of SC ZA co-administered with rHuPH20
Assay type: in vivo, human
Conditions: human, serum, sc, 0.0794 mg/kg, AUC (0-48 h), Subj 74; ZA 0.0794 mg/kg SC; inf […]; PH20 6000 U
Procedure: A pharmacokinetic study of zoledronic acid (ZA) co-administered with rHuPH20 in human subjects was conducted. […] Serum concentration of ZA was determined using a qualified LC-MS-MS assay after derivatization with diazomethane (Zhu, L S et al. (2006) Rapid Commun. […] The assay range was from 2.0 to 400 ng/mL with a lower limit of quantitation (LLOQ) at 2.0 ng/mL. […] Summary statistics (mean, standard deviation, and median) were calculated using JMP or Microsoft Excel.
assay endpoint: AUC(0-t) (ng·h/mL)
Give bare numbers, in ng·h/mL.

*Q* For the compound `O=P(O)(O)C(O)(Cn1ccnc1)P(=O)(O)O` , what AUC(0-t) is on record?
*A* 509
